Biological target: T1, Human MAGEB2 (Melanoma-associated antigen B2) (human, UniProt O15479 1-319)
T1 construct: Intracellular antigen detected by IHC in FFPE material: CHO cells transfected with human MAGEB2 (mCherry vector with Myc/DDK tags, or ORF without tags)
T1 sequence: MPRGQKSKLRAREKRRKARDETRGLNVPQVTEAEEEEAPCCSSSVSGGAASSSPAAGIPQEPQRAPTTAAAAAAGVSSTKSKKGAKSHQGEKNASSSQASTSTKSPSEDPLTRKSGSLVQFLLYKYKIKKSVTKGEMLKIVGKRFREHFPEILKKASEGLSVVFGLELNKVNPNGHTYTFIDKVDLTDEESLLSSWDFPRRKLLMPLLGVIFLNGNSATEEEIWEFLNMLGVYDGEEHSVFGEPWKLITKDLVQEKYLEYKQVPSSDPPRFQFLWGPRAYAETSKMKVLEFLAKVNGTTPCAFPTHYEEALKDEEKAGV
Test: IHC on FFPE SCaBER cells (endogenous MAGEB2)
Listed here: items and their measured IHC Intensity.

binder	IHC Intensity
1I14 (antibody, V domains shown, also called MAGE-B2 (1i14)) VH: QSVEESGGRLVTPGTPLTLTCTISGFSLSSYAMSWVRQAPGKGLEWIGSIGGGGSAVYASWAKGRFTISKTSTTVDLRITSPTTEDTAMYFCGRGFYSIDLWGPGTLVTVSS VL: DVVMTQTPASVEATVGGTVTIKCQSSQSVYDNNALAWYQQNAGQRPRLLIYGASTLASGVPSRFSASGSGTEFTLTISDLECADAATYYCQCTYYVSSYQNDFGGGTEVVVKG	0
1C3 (antibody, V domains shown, also called MAGE-B2 (IC3); anti-MAGEB2 antibody 1C3) VH: QSLEESGGGLVQPEGSLTLTCTAFGVTLTNYYICWVRQAPGKGLEWVGCIDNANGRTYYASWAKGRFTISKTSSTTGTLQMTSLTAADTATYFCARSLATPLWGPGTLVTVSS VL: DIVMTQTPSSVEAAVGGTVTIKCQASQNISSYLAWYQQKPGQPPKLLIYRASTLASGVPSRFKGSGSGTQFTLTISDLECADAATYYCQSYDDSRSSNFFYAFGGGTEVVVKG	2
4G17 (antibody, IgG1, V domains shown, Rabbit monoclonal IgG1; Tested as supernatant and as small batch purified antibody; also called MAGE-B2 (4G17); anti-MAGEB2 antibody 4G17) VH: QSLEESGGGLVQPEGSLTLTCTASGVTLSNYYICWVRQAPGKGLEWIGCIDNVNGRTYYASWAKGRFTISKTSSTTGTLQMTSLTAADTATYFCARSLATPLWGPGTLVTVSS VL: DIVMTQTPASVEAAVGGTVTIKCQASQNIDSYLAWYQQKPGQPPKLLIYRASTLASGVPSRFKGSGSGTEFTLTISDLECADAATYYCQSYDDSRSSSFFYGFGGGTEVVVK	2
1J15 (antibody, IgG1, V domains shown, Rabbit monoclonal IgG1; Tested as supernatant and as small batch purified antibody; also called MAGE-B2 (IJ15); anti-MAGEB2 antibody 1J15) VH: QSLEESGGGLVQPEGSLTLTCTAFGFTLNNYYICWVRQAPGKGLEWIACIDNANGRTYYASWAKGRFTISKTSSTTVTLQMTSLTAADTATYFCARSLSTPLWGPGTLVTVSS VL: DIVMTQTPASVEAAVGGTVTIKCQASQSISSYLSWYQQKPGQPPKLLIYRASTLASGVPSRFRGSGSGTQFTLTISDLECADAATYYCQSYDDSSDNNFFYGFGGGTEVVVR	2

Origin of values: patent US20250282887A1
